Recorded IC50 by entry
# Test system: T. brucei brucei (427 strain) bloodstream form
# Assay method text: In vitro T. brucei biological assay (Alamar blue)
# Format: cell-based, Trypanosoma brucei brucei
# Condition label: Trypanosoma brucei, 48 h, T. brucei brucei 427 strain bloodstream form growth inhibition; N = 3

COc1ccc(C2Oc3c(cc(Br)cc3OC)C=C2[N+](=O)[O-])cc1OC (stereo not drawn) | < 550 nM
COc1ccc(C2Oc3ccc(Br)cc3C=C2[N+](=O)[O-])cc1OC (stereo not drawn) | < 550 nM

// next entry
Input: Recorded IC50 for COc1ccc(C2Oc3c(Br)cc(Br)cc3C=C2[N+](=O)[O-])cc1OC (stereo not drawn) , please?
Output: < 550 nM
